Data provenance is patent US20250002453A1.

Assay comment: Dynamic solubility test (water, SGF, FaSSIF, FeSSIF; 37° C.; 1, 4 and 24 hours)
Format: physicochemical
Condition set: FaSSIF, 37° C., 12 hrs
Attribute measured: pH (of filtrate)
Numbers only.

- Molecule: "CCCCCCCC(=O)N[C@H](CN1CCCC1)[C@H](O)c1ccc2c(c1)OCCO2.CCCCCCCC(=O)N[C@H](CN1CCCC1)[C@H](O)c1ccc2c(c1)OCCO2.O=C(O)C(=O)O [Crystalline form A of oxalate]"
  Obs value: 6.47
- Molecule: "CCCCCCCC(=O)N[C@H](CN1CCCC1)[C@H](O)c1ccc2c(c1)OCCO2 [Free crystalline form A, reference compound]"
  Obs value: 7.30
- Molecule: "CCCCCCCC(=O)N[C@H](CN1CCCC1)[C@H](O)c1ccc2c(c1)OCCO2.CCCCCCCC(=O)N[C@H](CN1CCCC1)[C@H](O)c1ccc2c(c1)OCCO2.O=S(=O)(O)c1cccc2c(S(=O)(=O)O)cccc12"
  Obs value: 6.52

# context switch: different molecule, same pH (of filtrate)
IN: What value of pH (of filtrate) has been recorded for this entry: "CCCCCCCC(=O)N[C@H](CN1CCCC1)[C@H](O)c1ccc2c(c1)OCCO2.CCCCCCCC(=O)N[C@H](CN1CCCC1)[C@H](O)c1ccc2c(c1)OCCO2.O.O.O=S(=O)(O)c1cccc2c(S(=O)(=O)O)cccc12"
OUT: 6.49

----------
Assay comment: Dynamic solubility test (water, SGF, FaSSIF, FeSSIF; 37° C.; 1, 4 and 24 hours)
Type: physicochemical
Condition set: SGF, 37° C., 12 hrs
Kindly supply the reported S: Solubility (free concentration) values for the records listed here.
One number for each entry, in µg/mL.

Consider the reported S: Solubility (free concentration) for these compounds:
- Compound: "CCCCCCCC(=O)N[C@H](CN1CCCC1)[C@H](O)c1ccc2c(c1)OCCO2 [Free crystalline form A, reference compound]"
  Output unit: "µg/mL"
  Obs value: 6500
- Compound: "CCCCCCCC(=O)N[C@H](CN1CCCC1)[C@H](O)c1ccc2c(c1)OCCO2.CCCCCCCC(=O)N[C@H](CN1CCCC1)[C@H](O)c1ccc2c(c1)OCCO2.O.O.O=S(=O)(O)c1cccc2c(S(=O)(=O)O)cccc12"
  Output unit: "µg/mL"
  Obs value: 2600

IN: Any idea what its S: Solubility (free concentration) is? The compound is "CCCCCCCC(=O)N[C@H](CN1CCCC1)[C@H](O)c1ccc2c(c1)OCCO2.CCCCCCCC(=O)N[C@H](CN1CCCC1)[C@H](O)c1ccc2c(c1)OCCO2.O=S(=O)(O)c1cccc2c(S(=O)(=O)O)cccc12"
OUT: 2300

----------
Assay comment: Evaluation of hygroscopicity by Dynamic Vapor Sorption (DVS)
Assay type: physicochemical
Condition set: DVS, 25° C./80% RH
Attribute measured: Hygroscopic weight gain at 25° C./80% RH (%)
Give bare numbers, in %.

Field: example entries. Status: answers known.
- Molecule: "CCCCCCCC(=O)N[C@H](CN1CCCC1)[C@H](O)c1ccc2c(c1)OCCO2.CCCCCCCC(=O)N[C@H](CN1CCCC1)[C@H](O)c1ccc2c(c1)OCCO2.O=S(=O)(O)c1cccc2c(S(=O)(=O)O)cccc12"
  Hygroscopic weight gain at 25° C./80% RH, %: 0.59
- Molecule: "CCCCCCCC(=O)N[C@H](CN1CCCC1)[C@H](O)c1ccc2c(c1)OCCO2.CCCCCCCC(=O)N[C@H](CN1CCCC1)[C@H](O)c1ccc2c(c1)OCCO2.O.O.O=S(=O)(O)c1cccc2c(S(=O)(=O)O)cccc12"
  Hygroscopic weight gain at 25° C./80% RH, %: 0.33
- Molecule: "CCCCCCCC(=O)N[C@H](CN1CCCC1)[C@H](O)c1ccc2c(c1)OCCO2.CCCCCCCC(=O)N[C@H](CN1CCCC1)[C@H](O)c1ccc2c(c1)OCCO2.O=C(O)C(=O)O [Crystalline form A of oxalate]"
  Hygroscopic weight gain at 25° C./80% RH, %: 7.64

IN: Given the entry CCCCCCCC(=O)N[C@H](CN1CCCC1)[C@H](O)c1ccc2c(c1)OCCO2 [Free crystalline form A, reference compound] , report its measured Hygroscopic weight gain at 25° C./80% RH.
OUT: 0.01
